Biological target: hmGlu1 (Homo sapiens)
Sequence (Q13255 19-1194): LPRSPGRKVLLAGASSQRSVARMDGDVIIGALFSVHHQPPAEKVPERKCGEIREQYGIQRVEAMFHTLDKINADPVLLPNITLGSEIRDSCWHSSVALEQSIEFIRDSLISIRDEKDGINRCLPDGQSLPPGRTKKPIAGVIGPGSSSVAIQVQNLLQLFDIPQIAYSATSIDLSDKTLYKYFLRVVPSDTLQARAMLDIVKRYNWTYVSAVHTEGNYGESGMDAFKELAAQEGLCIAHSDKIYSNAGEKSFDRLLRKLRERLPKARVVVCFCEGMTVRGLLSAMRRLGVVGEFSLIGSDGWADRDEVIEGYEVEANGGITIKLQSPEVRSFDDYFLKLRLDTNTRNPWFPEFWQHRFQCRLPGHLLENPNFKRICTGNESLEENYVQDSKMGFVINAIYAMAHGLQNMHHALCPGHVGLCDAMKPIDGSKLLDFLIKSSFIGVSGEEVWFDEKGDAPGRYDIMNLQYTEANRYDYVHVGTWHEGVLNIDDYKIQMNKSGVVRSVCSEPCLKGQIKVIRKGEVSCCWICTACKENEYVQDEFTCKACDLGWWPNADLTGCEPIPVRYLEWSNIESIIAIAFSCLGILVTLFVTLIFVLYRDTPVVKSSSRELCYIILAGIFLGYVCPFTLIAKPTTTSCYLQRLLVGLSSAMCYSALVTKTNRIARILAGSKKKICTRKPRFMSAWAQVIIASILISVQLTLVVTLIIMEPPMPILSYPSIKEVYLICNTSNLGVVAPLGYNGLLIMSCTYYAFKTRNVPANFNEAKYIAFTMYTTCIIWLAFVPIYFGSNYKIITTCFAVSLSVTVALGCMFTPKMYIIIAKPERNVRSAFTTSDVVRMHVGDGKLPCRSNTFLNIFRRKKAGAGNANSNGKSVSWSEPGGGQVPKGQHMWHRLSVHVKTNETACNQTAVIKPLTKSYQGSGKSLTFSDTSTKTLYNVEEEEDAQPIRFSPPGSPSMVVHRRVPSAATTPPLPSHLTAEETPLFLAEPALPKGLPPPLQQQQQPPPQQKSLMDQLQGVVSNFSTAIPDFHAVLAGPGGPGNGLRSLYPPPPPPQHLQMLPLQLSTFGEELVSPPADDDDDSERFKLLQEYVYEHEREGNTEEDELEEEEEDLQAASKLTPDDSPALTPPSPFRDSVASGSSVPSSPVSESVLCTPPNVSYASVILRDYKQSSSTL
Test: Calcium mobilization mGlu1 PAM potency assay
Assay type: cell-based
Details: hmGlu1 pEC50 (±SEM), calcium mobilization
MEASUREMENT_KIND: pEC50
Expect pEC50 as a plain number equal to -log10 of the molar concentration.

So what pEC50 did O=C(Nc1ccc(N2C(=O)c3cccc(Cl)c3C2=O)c(Cl)c1)c1ncccc1Cl [24c] get with hmGlu1 (Homo sapiens)?
6.41

----------
Biological target: hmGlu4 (Homo sapiens, UniProt Q14833)
Sequence (Q14833 33-912): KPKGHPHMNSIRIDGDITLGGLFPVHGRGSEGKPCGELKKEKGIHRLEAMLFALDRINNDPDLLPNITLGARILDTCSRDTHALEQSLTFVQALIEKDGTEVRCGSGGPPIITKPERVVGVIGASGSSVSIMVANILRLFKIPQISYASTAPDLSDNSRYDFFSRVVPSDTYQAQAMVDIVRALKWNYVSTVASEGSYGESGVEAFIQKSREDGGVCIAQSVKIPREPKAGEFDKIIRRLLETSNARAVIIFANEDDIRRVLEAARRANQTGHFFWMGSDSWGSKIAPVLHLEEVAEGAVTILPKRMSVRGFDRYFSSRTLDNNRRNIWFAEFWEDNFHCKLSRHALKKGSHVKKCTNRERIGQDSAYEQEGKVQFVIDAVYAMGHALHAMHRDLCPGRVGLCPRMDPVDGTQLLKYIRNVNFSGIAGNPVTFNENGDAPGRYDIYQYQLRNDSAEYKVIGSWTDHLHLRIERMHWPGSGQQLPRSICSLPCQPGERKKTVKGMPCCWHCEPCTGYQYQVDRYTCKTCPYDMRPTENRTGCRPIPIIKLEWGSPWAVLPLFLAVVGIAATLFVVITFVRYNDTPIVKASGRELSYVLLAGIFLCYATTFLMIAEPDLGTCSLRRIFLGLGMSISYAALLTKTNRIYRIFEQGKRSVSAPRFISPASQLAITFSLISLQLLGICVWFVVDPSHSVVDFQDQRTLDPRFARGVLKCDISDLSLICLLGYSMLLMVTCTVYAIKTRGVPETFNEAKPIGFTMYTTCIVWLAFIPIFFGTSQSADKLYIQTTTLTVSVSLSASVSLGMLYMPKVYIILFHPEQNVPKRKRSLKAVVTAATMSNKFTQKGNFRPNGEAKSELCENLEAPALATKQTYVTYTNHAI
Experiment: Calcium mobilization mGlu4 assay
MEASUREMENT_KIND: EC50
Your reply should be a number followed by the unit it is expressed in.

So what EC50 did Cc1cccnc1C(=O)Nc1ccc(N2C(=O)c3cccc(Cl)c3C2=O)c(Cl)c1 [23c] get with hmGlu4 (Homo sapiens, UniProt Q14833)?
199 nM
